Cited source: patent US20250355001A1

- Test System: dGA (tau 297-390) (human, UniProt P10636 614-707)
- Sequence (P10636 614-707 limits assumed): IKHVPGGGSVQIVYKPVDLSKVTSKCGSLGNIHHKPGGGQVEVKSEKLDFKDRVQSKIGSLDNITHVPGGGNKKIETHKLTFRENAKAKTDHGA
- Measurement Protocol: SPR, scAb captured, tau analyte
Quantity Name: Kd (nM)

# Binder, Quantity Name, Measurement Units, Test Value
data = [
    ("S1E12 scAb (scFv, not shown: small tags and cut ends, scAb) scFv: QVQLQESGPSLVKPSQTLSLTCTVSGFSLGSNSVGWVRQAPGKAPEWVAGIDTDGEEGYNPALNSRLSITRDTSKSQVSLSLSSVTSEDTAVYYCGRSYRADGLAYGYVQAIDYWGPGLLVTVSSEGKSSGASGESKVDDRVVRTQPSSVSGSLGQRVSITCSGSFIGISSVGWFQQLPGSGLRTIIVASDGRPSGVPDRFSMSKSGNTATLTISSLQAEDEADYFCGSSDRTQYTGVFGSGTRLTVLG", "Kd", "nM", 0.543),
    ("E1B8 scAb (scFv, not shown: small tags and cut ends, scAb) scFv: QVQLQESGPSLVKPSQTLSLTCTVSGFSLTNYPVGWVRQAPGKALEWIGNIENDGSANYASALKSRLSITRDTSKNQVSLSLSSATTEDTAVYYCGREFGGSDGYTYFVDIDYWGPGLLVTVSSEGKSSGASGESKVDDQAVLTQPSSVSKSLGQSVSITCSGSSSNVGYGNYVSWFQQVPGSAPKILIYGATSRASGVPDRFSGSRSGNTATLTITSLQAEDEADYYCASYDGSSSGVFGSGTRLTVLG", "Kd", "nM", 17.7),
    ("S1G2 scAb (scFv, not shown: small tags and cut ends, scAb) scFv: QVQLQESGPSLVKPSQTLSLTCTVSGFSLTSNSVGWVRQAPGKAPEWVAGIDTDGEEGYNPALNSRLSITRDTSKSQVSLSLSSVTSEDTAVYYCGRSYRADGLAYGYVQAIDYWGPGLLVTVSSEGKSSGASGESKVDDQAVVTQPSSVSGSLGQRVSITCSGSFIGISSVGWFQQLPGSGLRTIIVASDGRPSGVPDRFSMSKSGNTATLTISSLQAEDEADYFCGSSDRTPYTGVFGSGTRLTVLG", "Kd", "nM", 0.447),
]
